Measured values drawn from paper PMC12567096 for this set.

Tested on: H9c2 cells
Assay: Cytotoxicity on H9c2 cells (CCK-8)
Format: cell-based, rat
Conditions: 50 μM, H9c2 cells, n=3
Endpoint Name: Inhibition rate (%)
Your answer is read as %, so omit the unit and give the number.

Look over these answered cases.
| Compound | Result Unit | Inhibition rate |
| --- | --- | --- |
| O=c1cc(-c2ccc(O)c(O)c2)oc2cc(O[C@@H]3O[C@H](CO)[C@@H](O)[C@H](O)[C@H]3O)cc(O)c12 [Luteoloside] | % | 8.1 |
| O=C(/C=C/c1ccc(O)c(O)c1)O[C@@H]1C[C@@](O)(C(=O)O)C[C@@H](O)[C@@H]1O | % | 3.8 |
| CC(C)(O)[C@@H]1CC[C@](C)([C@H]2[C@@H](O)C[C@@]3(C)[C@@H]4C[C@H](O[C@@H]5O[C@H](CO)[C@@H](O)[C@H](O)[C@H]5O)[C@H]5C(C)(C)[C@@H](O[C@@H]6OC[C@@H](O)[C@H](O)[C@H]6O)CC[C@@]56C[C@@]46CC[C@]23C)O1 [Astragaloside IV] | % | 7.0 |
| COc1ccc(CCO[C@@H]2O[C@H](CO[C@@H]3OC[C@H](O)[C@H](O)[C@H]3O)[C@@H](OC(=O)/C=C/c3ccc(O)c(OC)c3)[C@H](O[C@@H]3O[C@@H](C)[C@H](O)[C@@H](O)[C@H]3O)[C@H]2O)cc1O [Angoroside C] | % | 12.7 |
| O=C(/C=C/c1ccc(O)c(O)c1)O[C@H]1[C@H](O)C[C@](O)(C(=O)O)C[C@H]1OC(=O)/C=C/c1ccc(O)c(O)c1 | % | -16.6 |

Would you kindly look at the next entry?
Bench note: what Inhibition rate did C=C[C@H]1[C@H](O[C@@H]2O[C@H](CO)[C@@H](O)[C@H](O)[C@H]2O)OC=C(C(=O)O)[C@H]1CC(=O)O [Secologanoside] show?
11.0

---

Test: Pharmacokinetic study in rats after oral administration of QSG
Conditions: Sprague Dawley, rat, plasma, po, 7 g/kg
// reported MRT for each item listed
Your answer is read as h, so omit the unit and give the number.

| Input Smiles | MRT [h] |
| --- | --- |
| O=C(/C=C/c1ccc(O)cc1)c1ccc(O)cc1O | 7.68 |
| COc1ccc(-c2coc3cc(O)ccc3c2=O)cc1 | 6.79 |
| O=c1cc(-c2ccc(O)c(O)c2)oc2cc(O)cc(O)c12 | 1.84 |

Would you kindly look at the next entry?
Bench note: what MRT did "O=C(/C=C/c1ccc(O)c(O)c1)O[C@@H]1C[C@](O)(C(=O)O)C[C@@H](O)[C@H]1O" show?
7.18

---

Test: Concentrations of 24 analytes in QSG treated plasma (Table S5)
Conditions: Sprague Dawley, rat, in vivo, 7 g/kg
// reported concentration at 12 h for each item listed
Your answer is read as ng/mL, so omit the unit and give the number.

| Input Smiles | concentration at 12 h / ng/mL |
| --- | --- |
| COC[C@@]12CC[C@H](OC)[C@]34C(C([C@H](OC)[C@H]13)[C@]1(OC(C)=O)[C@H]3[C@@H](OC(=O)c5ccccc5)[C@](O)(C[C@H]34)[C@@H](OC)[C@@H]1O)N(C)C2 | 0.005 |

Bench note: what concentration at 12 h did "O=C(/C=C/c1ccc(O[C@@H]2O[C@H](CO)[C@@H](O)[C@H](O)[C@H]2O)cc1)c1ccc(O)cc1O" show?
0.158

---

// reported half-life for each item listed
Experiment: Pharmacokinetic study in rats after oral administration of QSG
Conditions: Sprague Dawley, rat, plasma, po, 7 g/kg
Your answer is read as h, so omit the unit and give the number.

Look over these answered cases.
| Input Smiles | half-life / h |
| --- | --- |
| O=c1cc(-c2ccc(O)c(O)c2)oc2cc(O)cc(O)c12 | 2.6 |
| O=C(/C=C/c1ccc(O)cc1)c1ccc(O)cc1O | 12.4 |
| O=C(/C=C/c1ccc(O)c(O)c1)O[C@@H]1C[C@](O)(C(=O)O)C[C@@H](O)[C@H]1O | 9.22 |

Would you kindly look at the next entry?
Bench note: what half-life did "COc1ccc(-c2coc3cc(O)ccc3c2=O)cc1" show?
10.9

---

// reported concentration at 8 h for each item listed
Experiment: Concentrations of 24 analytes in QSG treated plasma (Table S5)
Conditions: Sprague Dawley, rat, plasma, oral, 7 g/kg

| Input Smiles | Endpoint Name | Endpoint Result |
| --- | --- | --- |
| O=c1cc(-c2ccc(O)c(O)c2)oc2cc(O)cc(O)c12 | concentration at 8 h | 0.188 ng/mL |
| COc1ccc(-c2coc3cc(O)ccc3c2=O)cc1O | concentration at 8 h | 0.737 ng/mL |
| O=C1C[C@@H](c2ccc(O[C@@H]3O[C@H](CO)[C@@H](O)[C@H](O)[C@H]3O)cc2)Oc2cc(O)ccc21 | concentration at 8 h | 2.17 ng/mL |
| COc1ccc(-c2coc3cc(O)ccc3c2=O)cc1 | concentration at 8 h | 0.656 ng/mL |

Bench note: what concentration at 8 h did "O=C(/C=C/c1ccc(O)c(O)c1)O[C@@H]1C[C@](O)(C(=O)O)C[C@@H](O)[C@H]1O" show?
51.4 ng/mL

Another molecule to check: "O=C(/C=C/c1ccc(O)cc1)c1ccc(O)cc1O"
0.053 ng/mL

---

// reported Concentration for each item listed
Experiment: Concentrations of 24 analytes in QSG treated plasma (Table S5)
Conditions: QSG treated plasma, 0.08 h, n = 5
Your answer is read as ng/mL, so omit the unit and give the number.

| Molecule | Endpoint Result |
| --- | --- |
| O=C(/C=C/c1ccc(O)c(O)c1)O[C@H]1[C@H](O)C[C@](O)(C(=O)O)C[C@H]1O [Cryptochlorogenic acid] | 17.855 |
| O=C(/C=C/c1ccc(O)c(O)c1)O[C@H]1[C@H](O)C[C@](O)(C(=O)O)C[C@H]1OC(=O)/C=C/c1ccc(O)c(O)c1 [Isochlorogenic acid C] | 12.829 |

Bench note: what Concentration did O=C1C[C@@H](c2ccc(O)cc2)Oc2cc(O)ccc21 [Liquiritigenin] show?
1.163

Another molecule to check: COc1ccc(-c2coc3cc(O[C@@H]4O[C@H](CO)[C@@H](O)[C@H](O)[C@H]4O)ccc3c2=O)cc1O [Calycosin-7-O-glucoside, Calycosin-7-O-D-glucoside]
1.161

---

Experiment: Concentrations of 24 analytes in QSG treated plasma (Table S5)
Settings: Sprague Dawley, rat, in vivo, 7 g/kg
Endpoint Name: concentration at 0.17 h (ng/mL)
Your answer is read as ng/mL, so omit the unit and give the number.

| Compound | Endpoint Name | Result Unit | Endpoint Result |
| --- | --- | --- | --- |
| COC[C@@]12CC[C@H](OC)[C@]34C(C([C@H](OC)[C@H]13)[C@]1(OC(C)=O)[C@H]3[C@@H](OC(=O)c5ccccc5)[C@](O)(C[C@H]34)[C@@H](OC)[C@@H]1O)N(C)C2 [Hypaconitine] | concentration at 0.17 h | ng/mL | 0.202 |

Bench note: what concentration at 0.17 h did O=C(/C=C/c1ccc(O[C@@H]2O[C@H](CO)[C@@H](O)[C@H](O)[C@H]2O)cc1)c1ccc(O)cc1O [Isoliquiritin] show?
1.24

---

Experiment: Concentrations of 24 analytes in QSG treated plasma (Table S5)
Conditions: QSG treated plasma, 12 h, n = 5
// reported Concentration for each item listed
Your answer is read as ng/mL, so omit the unit and give the number.

| Compound | Endpoint Name | Endpoint Result |
| --- | --- | --- |
| CC(C)(O)[C@@H]1CC[C@](C)([C@H]2[C@@H](O)C[C@@]3(C)[C@@H]4C[C@H](O[C@@H]5O[C@H](CO)[C@@H](O)[C@H](O)[C@H]5O)[C@H]5C(C)(C)[C@@H](O[C@@H]6OC[C@@H](O)[C@H](O)[C@H]6O)CC[C@@]56C[C@@]46CC[C@]23C)O1 [Astragaloside IV] | Concentration | 2.200 |
| O=C(/C=C/c1ccc(O)c(O)c1)O[C@H]1[C@H](O)C[C@](O)(C(=O)O)C[C@H]1O | Concentration | 12.189 |
| COc1ccc(-c2coc3cc(O[C@@H]4O[C@H](CO)[C@@H](O)[C@H](O)[C@H]4O)ccc3c2=O)cc1O [Calycosin-7-O-glucoside, Calycosin-7-O-D-glucoside] | Concentration | 0.536 |

Bench note: what Concentration did "O=C(/C=C/c1ccc(O)c(O)c1)O[C@H]1[C@H](O)C[C@](O)(C(=O)O)C[C@H]1OC(=O)/C=C/c1ccc(O)c(O)c1" show?
1.848

Another compound to check: "O=C1C[C@@H](c2ccc(O)cc2)Oc2cc(O)ccc21"
2.987
